# assayComment: physchem
# cond: octan-1-ol/water, pH 7.4
readoutKind: logD

INSERT INTO results (compound, endpointresult) VALUES
  ('CC(C)[C@@H](CN1CC[C@@](C)(c2cccc(O)c2)[C@@H](C)C1)NC(=O)[C@H]1Cc2ccc(O)cc2CN1', 2.39),
  ('NC(=O)c1cc([N+](=O)[O-])cc([N+](=O)[O-])c1 [NITROMIDE]', 0.81),
  ('COC(=O)c1ccc2c(c1)N(CCN1CCC(NCc3ccc4c(n3)NC(=O)CO4)CC1)C(=O)CO2', 0.83),
  ('NC(=O)NC(=O)C(Nc1ccc2c(c1)CCC2)c1ccccc1 (stereo not given)', 3.3),
  ('O=C1COc2ccccc2N1CCN1CCC(NCc2cc3c(cn2)OCCO3)CC1', 1.04),
  ('O=C(NCC1CCOCC1)c1ncccc1NC(=O)c1cccc2ccccc12', 4.4),
  ('CC(C)NCC(O)COc1cccc2[nH]ccc12 (stereo not given)', -0.12),
  ('c1ccc(C2CCNCC2)cc1', 0.54),
  ('CN(C)C(=O)N[C@H]1CC[C@@H](CCN2[C@@H]3CC[C@H]2C[C@@H](Oc2cccc(C(N)=O)c2)C3)CC1', 0.22),
  ('O=C(NCc1ccncc1)c1ccc(Oc2ccc(C#C[C@@]3(O)CN4CCC3CC4)cc2)cc1', 2.31);
